B1: library; numbered along this chain (parent)
chain: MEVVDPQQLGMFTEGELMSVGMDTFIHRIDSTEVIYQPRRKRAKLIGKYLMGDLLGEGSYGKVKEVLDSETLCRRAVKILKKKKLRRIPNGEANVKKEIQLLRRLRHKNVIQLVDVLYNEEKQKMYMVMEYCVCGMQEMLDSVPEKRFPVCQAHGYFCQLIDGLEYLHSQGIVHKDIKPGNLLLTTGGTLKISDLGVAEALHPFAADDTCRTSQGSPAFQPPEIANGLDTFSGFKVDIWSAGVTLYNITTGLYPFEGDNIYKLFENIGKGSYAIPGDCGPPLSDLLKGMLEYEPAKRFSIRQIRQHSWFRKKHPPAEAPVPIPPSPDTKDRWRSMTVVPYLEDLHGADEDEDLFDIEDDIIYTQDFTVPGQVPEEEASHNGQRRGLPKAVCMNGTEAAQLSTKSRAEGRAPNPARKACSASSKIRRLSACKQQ

Variants of: B1
assay.name: STK11 functional score (HeLa growth suppression), rescaled enrichment; synonymous median = 1, nonsense median = 0 (normalised score)
study.conditions: with HeLa; variant type: missense
Known STK11 functional score of a selection of variants
# print the numeric value only

Look over these answered cases.
[
  {
    "variant.annotation": "T13I",
    "STK11 functional score": 1.01
  },
  {
    "variant.annotation": "M129F",
    "STK11 functional score": 0.993
  },
  {
    "variant.annotation": "I248A",
    "STK11 functional score": 1.15
  },
  {
    "variant.annotation": "E199K",
    "STK11 functional score": 1.2
  }
]

Return reported STK11 functional score. Input variant: `I224P`
0.889

Entry `E342Q` needs its STK11 functional score filled in; supply it.
1.23

Provide one value: measured STK11 functional score of `R104V`
0.88

Identify STK11 functional score associated with the variant `L80M`
0.45
